molecular target: DAEFRH-specific monoclonal antibody (mAb) produced according to example 1; experiment: competition ELISA: soluble peptide vs plate-bound DAEFRH-C-BSA for biotinylated mAb, FIG. 2
result_type: IC50

The examples below pair each entry with its known result.
DKELRIC [Peptide 3001 DKELRI]; < 0.5 µg/mL
YAEFRGC [Peptide 3005 YAEFRG]; > 0.5 µg/mL
EAEFRGC [Peptide 3006 EAEFRG]; < 0.5 µg/mL

Let's switch to this binder now.
The recorded IC50 for DWELRIC [Peptide 3002 DWELRI] is > 0.5 µg/mL
